- System name: Serotonin 2 (5-HT2) receptor (Rattus norvegicus) (UniProt P30994+P08909+P14842)
- Sequence (P08909 whole entry, looked up): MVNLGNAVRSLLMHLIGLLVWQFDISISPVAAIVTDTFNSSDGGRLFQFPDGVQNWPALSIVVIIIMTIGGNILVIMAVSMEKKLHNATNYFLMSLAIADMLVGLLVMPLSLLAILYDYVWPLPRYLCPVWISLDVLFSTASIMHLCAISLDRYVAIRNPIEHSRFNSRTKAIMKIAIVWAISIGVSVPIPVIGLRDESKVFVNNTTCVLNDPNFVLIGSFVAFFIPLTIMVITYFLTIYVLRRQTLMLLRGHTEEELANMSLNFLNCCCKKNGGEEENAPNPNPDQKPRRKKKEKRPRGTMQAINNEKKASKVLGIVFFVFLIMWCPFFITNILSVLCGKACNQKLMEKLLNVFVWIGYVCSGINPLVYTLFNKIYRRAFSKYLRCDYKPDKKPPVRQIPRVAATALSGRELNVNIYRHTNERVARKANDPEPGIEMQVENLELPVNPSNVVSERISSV
- Sequence (P14842 whole entry, looked up): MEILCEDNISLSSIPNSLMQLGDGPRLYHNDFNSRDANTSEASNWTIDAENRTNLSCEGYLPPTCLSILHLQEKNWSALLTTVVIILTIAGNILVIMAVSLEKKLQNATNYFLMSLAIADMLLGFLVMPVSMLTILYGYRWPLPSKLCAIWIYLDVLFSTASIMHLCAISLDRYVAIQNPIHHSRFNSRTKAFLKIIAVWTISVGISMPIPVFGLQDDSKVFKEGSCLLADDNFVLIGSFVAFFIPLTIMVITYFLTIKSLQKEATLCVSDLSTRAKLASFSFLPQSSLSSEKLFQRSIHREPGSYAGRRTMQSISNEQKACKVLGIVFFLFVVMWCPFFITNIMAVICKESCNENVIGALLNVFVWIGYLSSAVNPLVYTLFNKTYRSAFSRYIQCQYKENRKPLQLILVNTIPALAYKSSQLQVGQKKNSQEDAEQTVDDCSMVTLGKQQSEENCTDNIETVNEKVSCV
- Sequence (P30994 whole entry, looked up): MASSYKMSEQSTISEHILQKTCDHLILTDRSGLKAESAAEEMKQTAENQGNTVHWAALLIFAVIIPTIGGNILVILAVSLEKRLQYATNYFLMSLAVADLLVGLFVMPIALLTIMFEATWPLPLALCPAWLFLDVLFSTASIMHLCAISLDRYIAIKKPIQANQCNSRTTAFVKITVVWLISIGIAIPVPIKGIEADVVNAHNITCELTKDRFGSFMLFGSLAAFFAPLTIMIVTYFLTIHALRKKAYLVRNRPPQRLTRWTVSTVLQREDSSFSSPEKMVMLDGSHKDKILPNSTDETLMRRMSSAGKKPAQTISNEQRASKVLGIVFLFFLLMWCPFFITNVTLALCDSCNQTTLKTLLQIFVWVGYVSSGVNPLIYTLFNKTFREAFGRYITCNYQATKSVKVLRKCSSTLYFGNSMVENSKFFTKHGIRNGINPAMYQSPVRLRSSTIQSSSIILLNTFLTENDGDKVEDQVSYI
- Assay summary: Binding affinity against 5-hydroxytryptamine 2 receptor in serotonin-induced contraction of the rat aorta
- Format: tissue-based
Metric: pKb
I only need the number, thanks.

Record excerpt, results attached:
COc1cc(N)c(Cl)cc1C(=O)NC1CCN(CCCOc2ccc(F)cc2)CC1OC (stereo not given) ... 7.89
CC(C)n1nc(C(=O)NC2CCN(Cc3ccccc3)CC2)c2ccccc21 ... 5.5

Okay, now this molecule:
Input: Answer with the recorded pKb of CC(C)n1nc(C(=O)NC2CCN(CCCOc3ccc(F)cc3)CC2)c2ccccc21 only.
Output: 6.8

* * *

Measured pKi values are reported for all entries that follow.
- System name: Adrenergic receptor alpha-1 (Rattus norvegicus) (UniProt P15823+P23944+P43140)
- Assay summary: Affinity for the alpha-1 adrenergic receptor determined by the displacement of [3H]prazosin from rat whole brain tissue.
- Type: tissue-based

Record excerpt, results attached:
CC(C)n1nc(C(=O)NCCN2CCC(NC(=O)C34C[C@H]5C[C@@H](C3)C[C@@H](C4)C5)CC2)c2ccccc21 ... 4.3
CC(C)n1nc(C(=O)NC2CCN(Cc3ccccc3)CC2)c2ccccc21 ... < 4
CC(C)n1nc(C(=O)NC2CCN(CCNC(=O)c3ccccc3)CC2)c2ccccc21 ... 6.62
CC(C)n1nc(C(=O)NCCN2CCC(NC(=O)OCc3ccccc3)CC2)c2ccccc21 ... 5.9

Okay, now this compound:
Input: Answer with the recorded pKi of CC(=O)NC1CCN(CCNC(=O)c2nn(C(C)C)c3ccccc23)CC1 only.
Output: < 4

* * *

- System name: 5-hydroxytryptamine receptor 4 (Rattus norvegicus) (UniProt Q62758)
- Sequence (Q62758 whole entry): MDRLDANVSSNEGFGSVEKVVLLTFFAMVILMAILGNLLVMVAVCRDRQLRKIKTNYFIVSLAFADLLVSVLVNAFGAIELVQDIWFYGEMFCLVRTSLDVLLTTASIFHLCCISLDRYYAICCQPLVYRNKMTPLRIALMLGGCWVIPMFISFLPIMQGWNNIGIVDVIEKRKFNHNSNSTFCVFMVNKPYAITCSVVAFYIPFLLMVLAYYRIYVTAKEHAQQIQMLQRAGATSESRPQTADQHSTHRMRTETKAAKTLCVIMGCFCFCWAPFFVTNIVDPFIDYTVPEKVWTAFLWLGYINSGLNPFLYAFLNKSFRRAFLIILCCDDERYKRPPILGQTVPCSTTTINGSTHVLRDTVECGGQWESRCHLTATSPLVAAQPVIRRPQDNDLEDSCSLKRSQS
- Assay summary: Antagonistic activity evaluated by ability to block serotonin induced relaxation via 5-hydroxytryptamine 4 receptor) in carbamylcholine (10e-6 M) contracted esophagus at a concentration of 0.1 mg/kg (p.o.)
- Type: functional, organism-based
- Design: dose 0.1 mg/kg
Metric: Relaxation (%)
The answer is to be given in %; state only the numeric part.

Record excerpt, results attached:
CC(C)n1nc(C(=O)NCCN2CCC(NC(=O)NCc3ccccc3)CC2)c2ccccc21 ... 30
CC(C)n1nc(C(=O)NCCN2CCC(Cc3ccccc3)CC2)c2ccccc21 ... 26
CC(C)n1nc(C(=O)NCCN2CCc3ccccc3C2)c2ccccc21 ... 41

Input: Answer with the recorded Relaxation of CCCCC(=O)NC1CCN(CCNC(=O)c2nn(C(C)C)c3ccccc23)CC1 only.
Output: 38

Input: Answer with the recorded Relaxation of CC(C)n1nc(C(=O)NCCCN2CCCCC2)c2ccccc21 only.
Output: 15

Input: Answer with the recorded Relaxation of CC(C)n1nc(C(=O)NCCN2CCC(NC(=O)C34C[C@H]5C[C@@H](C3)C[C@@H](C4)C5)CC2)c2ccccc21 only.
Output: 27

Input: Answer with the recorded Relaxation of CC(C)C(=O)NC1CCN(CCNC(=O)c2nn(C(C)C)c3ccccc23)CC1 only.
Output: 45

Input: Answer with the recorded Relaxation of CC(C)n1nc(C(=O)NCCN2CCCCCC2)c2ccccc21 only.
Output: 52

Input: Answer with the recorded Relaxation of CC(C)n1nc(C(=O)NCCN2CCCCC2)c2ccccc21 only.
Output: 38

Input: Answer with the recorded Relaxation of CC(C)n1nc(C(=O)NCCCCN2CCCCC2)c2ccccc21 only.
Output: 49

Input: Answer with the recorded Relaxation of CC(C)n1nc(C(=O)NCCN2CCC(NC(=O)C(C)(C)C)CC2)c2ccccc21 only.
Output: 30

Input: Answer with the recorded Relaxation of CC(C)n1nc(C(=O)NCCN2CCC(NS(C)(=O)=O)CC2)c2ccccc21 only.
Output: 29

Input: Answer with the recorded Relaxation of CC(C)n1nc(C(=O)NCCN2CCC(NC(=O)Cc3ccccc3)CC2)c2ccccc21 only.
Output: 39

Input: Answer with the recorded Relaxation of CC(C)n1nc(C(=O)NCCN2CCC(NC(=O)c3ccccc3)CC2)c2ccccc21 only.
Output: 50

Input: Answer with the recorded Relaxation of CCC(=O)NC1CCN(CCNC(=O)c2nn(C(C)C)c3ccccc23)CC1 only.
Output: 36

* * *

- System name: 5-hydroxytryptamine receptor 4 (Rattus norvegicus) (UniProt Q62758)
- Assay summary: Antagonistic activity by ability to block serotonin induced relaxation (mediated by activation of 5-hydroxytryptamine 4 receptor) in carbamylcholine (10e-6 M) contracted esophagus at a concentration of 10e-7 M.
- Format: functional, tissue-based
Each record gets a class by Relaxation: low = under 20%, middle = from 20% up to 30%, high = 30% and over

Sample answers from the record:
CC(C)n1nc(C(=O)NCCN2CCOCC2)c2ccccc21 ... high
CC(C)n1nc(C(=O)NCCN2CCC(NC(=O)c3ccccc3)CC2)c2ccccc21 ... low
CC(C)n1nc(C(=O)NC2CCN(CCNC(=O)c3ccccc3)CC2)c2ccccc21 ... middle
CC(C)n1nc(C(=O)NCCN2CCCCC2)c2ccccc21 ... middle
CC(C)n1nc(C(=O)NC2CC3CCC(C2)N3CCCOc2ccc(F)cc2)c2ccccc21 (stereo not given) ... middle
CC(C)n1nc(C(=O)NC2CCN(CCNC(=O)C34C[C@H]5C[C@@H](C3)C[C@@H](C4)C5)CC2)c2ccccc21 ... high
CC(C)n1nc(C(=O)NC2CCN(CCNS(C)(=O)=O)CC2)c2ccccc21 ... low
CCCCC(=O)NC1CCN(CCNC(=O)c2nn(C(C)C)c3ccccc23)CC1 ... middle

Input: Consider CC(C)n1nc(C(=O)NC2CCN(CCCOc3ccc(F)cc3)CC2)c2ccccc21 . To which Relaxation class does it belong?
Output: low

Input: Consider CC(C)n1nc(C(=O)NCCCCN2CCCCC2)c2ccccc21 . To which Relaxation class does it belong?
Output: high

* * *

- System name: 5-hydroxytryptamine receptor 4 (Rattus norvegicus) (UniProt Q62758)
- Assay summary: Antagonistic activity by ability to block serotonin induced relaxation (mediated by activation of 5-hydroxytryptamine 4 receptor) in carbamylcholine (10e-6 M) contracted esophagus at a concentration of 10e-6 M.
- Assay type: functional, tissue-based
Metric: Relaxation (%)
The answer is to be given in %; state only the numeric part.

Record excerpt, results attached:
CC(C)n1nc(C(=O)NCCN2CCC(Cc3ccccc3)CC2)c2ccccc21 ... 16.4
CN1C2CCC1CC(NC(=O)n1c(=O)n(C)c3ccccc31)C2 (stereo unspecified) ... 7.3
CCC(C)n1cc(C(=O)NC2CC3CCC(C2)N3C)c2ccccc21 (stereo unspecified) ... 57.8
CC(C)n1c(=O)n(C(=O)NC2CC3CCC(C2)N3CCCOc2ccc(F)cc2)c2ccccc21 (stereo unspecified) ... 2.1
CC(C)n1nc(C(=O)NCCN2CCC(NC(=O)Nc3ccc(F)cc3)CC2)c2ccccc21 ... 6.3

Input: Answer with the recorded Relaxation of CC(C)n1nc(C(=O)NC2CCN(Cc3ccccc3)CC2)c2ccccc21 only.
Output: 3.85

Input: Answer with the recorded Relaxation of CC(C)n1nc(C(=O)NCCN2CCc3ccccc3C2)c2ccccc21 only.
Output: 20.3

Input: Answer with the recorded Relaxation of CC(C)n1nc(C(=O)NCCCCN2CCCCC2)c2ccccc21 only.
Output: 3.3

Input: Answer with the recorded Relaxation of CC(C)n1nc(C(=O)NCCN2CCC(NC(=O)Nc3ccccc3)CC2)c2ccccc21 only.
Output: 11

Input: Answer with the recorded Relaxation of CC(C)n1cc(C(=O)NC2CC3CCC(C2)N3C)c2ccccc21 (stereo unspecified) only.
Output: 25.3

Input: Answer with the recorded Relaxation of CCn1cc(C(=O)NC2CC3CCC(C2)N3C)c2ccccc21 (stereo unspecified) only.
Output: 44.8

Input: Answer with the recorded Relaxation of CC(C)n1nc(C(=O)NCCN2CCN(C(=O)c3ccccc3)CC2)c2ccccc21 only.
Output: 19.8

* * *

- System name: Serotonin 3 (5-HT3) receptor (Homo sapiens) (UniProt P46098+A5X5Y0+O95264+Q70Z44+Q8WXA8)
- Assay summary: The compound was tested for binding affinity against 5-hydroxytryptamine 3 receptor in guinea pig ileum.
- Type: tissue-based
- Experimental setup: Cavia porcellus, target entry is the homologue from another species
Measured pKb values are reported for all entries that follow.
I only need the number, thanks.

Record excerpt, results attached:
CC(C)n1nc(C(=O)NC2CCN(C)CC2)c2ccccc21 ... 6.3
CN1[C@@H]2CC[C@H]1C[C@@H](NC(=O)c1cc(Cl)cc3c1OC(C)(C)C3)C2 ... 8.78
CC(C)n1nc(C(=O)NCCN2CCCCC2)c2ccccc21 ... 5.8

Okay, now this compound:
Input: Answer with the recorded pKb of CC(C)n1c(=O)n(C(=O)NC2CC3CCC(C2)N3C)c2ccccc21 (centres undefined) only.
Output: 7.5

* * *

- System name: 5-hydroxytryptamine receptor 4 (Rattus norvegicus)
- Assay summary: Antagonistic activity by ability to block serotonin induced relaxation (mediated by activation of 5-hydroxytryptamine 4 receptor) in carbamylcholine (10e-6 M) contracted esophagus at a concentration of 10e-6 M.
- Assay type: functional, tissue-based
Measured Relaxation values are reported for all entries that follow.
The answer is to be given in %; state only the numeric part.

Record excerpt, results attached:
CC(C)n1nc(C(=O)NCCN2CCCC2)c2ccccc21 ... 4.3
CC(C)n1nc(C(=O)NCCCN2CCCCC2)c2ccccc21 ... 6.3
CC(C)n1c(=O)n(C(=O)NC2CC3CCC(C2)N3C)c2ccccc21 (stereo unspecified) ... 2.7
CC(C)n1nc(C(=O)NCCN2CCC(N)CC2)c2ccccc21 ... 36.8
CC(C)n1nc(C(=O)NC2CCNCC2)c2ccccc21 ... 32

Input: Answer with the recorded Relaxation of CC(=O)NC1CCN(CCNC(=O)c2nn(C(C)C)c3ccccc23)CC1 only.
Output: 6.8

Input: Answer with the recorded Relaxation of CC(C)n1nc(C(=O)NC2CCN(CCNC(=O)c3ccccc3)CC2)c2ccccc21 only.
Output: 6
